Entries and their activity change % (negative = inhibition)
# system_tested: Thyroid hormone receptor beta (Homo sapiens)
# assay_protocol: qHTS assay for small molecule antagonists of thyroid hormone receptor beta signaling (AID 588547);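 note: cells stimulated with 0.4 nM T3 agonist during compound exposure; series mostly up to about 77 µM; % is set by controls: 0 for no effect and ±100 for the full control effect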
# reported_conditions: TR-UAS-bla HEK293, beta-lactamase ratio, antagonist mode, 18 h
Inconclusive results are not listed. The source made the active and inactive calls. Calls come from the whole dose curve; as a rule, active = well fitted inhibition curve with a large enough effect in the signal ratio, with a control signal flat (not every such curve was filed as active); inconclusive = small, poorly fitted or top-dose-only effect, or effect the other way, or a change in a side signal; inactive = flat fitted curve, though single readings scatter; the % refers to the signal ratio.
property_measured: activity change % (negative = inhibition)

> print(dat)
                            smiles.notation  recorded.measurement
1  CC(C)(O)C(=O)Nc1ccc([N+](=O)[O-])c(C(F)(F)F)c1      23.5% (inactive)
2                          O=C(O)COc1ccccc1     -9.48% (inactive)
3               Nc1c(Cl)c(Cl)c(Cl)c(Cl)c1Cl      17.1% (inactive)
4  CCCN(CCC)c1c([N+](=O)[O-])cc(S(N)(=O)=O)cc1[N+](=O)[O-]      0.13% (inactive)
5             CC(C)(c1ccc(O)cc1)c1ccc(O)cc1     -3.91% (inactive)
6   O=S(=O)(O)C(F)(F)C(F)(F)C(F)(F)C(F)(F)F     -13.9% (inactive)
7                c1cc2ccc3cccc4ccc(c1)c2c34      8.95% (inactive)
